Readings of composite z-score for the listed compounds
- Test target: Torsin-1A-interacting protein 1 (Homo sapiens)
- Assay details: LAP1 binders from COS7 cell lysate, primary screen, small-molecule microarray, 635/667 nm fluorescence (AID 1116)
- Measurement context: COS7-hLAP1 lysate binding, 635 nm fluorescence, higher = more signal
Answer with the value's number alone.

Some solved cases for reference:
compound=[N-]=[N+]=NCc1ccccc1C[C@]1(C(N)=O)COC(c2ccc(OCCCO)cc2)=N1 test_target="Torsin-1A-interacting protein 1 (Homo sapiens)" measured=2.59
compound=COC(=O)C(CC#Cc1ccc2c(c1)[C@]1(C(=O)N2)[C@H](c2ccc(OCCO)cc2)N2[C@H](c3ccccc3)[C@H](c3ccccc3)OC(=O)[C@H]2[C@@H]1C(=O)N1CCc2cc(OC)c(OC)cc2C1)C(=O)OC test_target="Torsin-1A-interacting protein 1 (Homo sapiens)" measured=1.58
compound=CCCC[C@@H]1C[C@H]1[C@@H](NC(=O)c1ccccc1)c1ccc(C(=O)OC)cc1 test_target="Torsin-1A-interacting protein 1 (Homo sapiens)" measured=-0.679
compound=COCCCNC(=O)[C@@]1(C)c2ccccc2C(=O)N(C(C)C)[C@H]1c1ccc(CO)cc1 test_target="Torsin-1A-interacting protein 1 (Homo sapiens)" measured=0.999
compound="CCCc1cc2c(n1Cc1cc(F)cc(F)c1)C(C)C1CN(C(=O)c3ccccc3)C(C)(C(=O)OC)C21 (stereo unspecified)" test_target="Torsin-1A-interacting protein 1 (Homo sapiens)" measured=2.6
compound=Cc1ccc(S[C@]2(C(=O)NC3CC3)CC(=O)N(Cc3ccccc3)[C@@H]2c2ccc(CO)cc2I)cc1 test_target="Torsin-1A-interacting protein 1 (Homo sapiens)" measured=-0.0172
compound=CCOC(=O)C[C@H]1[C@H](OC(=O)c2ccc(C(=O)c3ccccc3)cc2)[C@@H](NC(=O)c2ccc3ccccc3c2)c2cc(OCCCO)ccc2N1C(=O)Cc1ccc(OC)cc1 test_target="Torsin-1A-interacting protein 1 (Homo sapiens)" measured=0.669
compound=COCCOC(=O)N1C(=O)[C@@]2(c3cc(C#CCNC(N)=O)ccc31)[C@H](C(=O)N1CCN(c3ncccn3)CC1)[C@H]1C(=O)O[C@H](c3ccccc3)[C@H](c3ccccc3)N1[C@@H]2c1ccc(OCCO)cc1 test_target="Torsin-1A-interacting protein 1 (Homo sapiens)" measured=0.0481
compound=COCCOC(=O)N1C(=O)[C@@]2(c3cc(C#CCNC(N)=O)ccc31)[C@H](C(=O)Nc1nc3ccccc3s1)[C@H]1C(=O)O[C@H](c3ccccc3)[C@H](c3ccccc3)N1[C@@H]2c1ccc(OCCO)cc1 test_target="Torsin-1A-interacting protein 1 (Homo sapiens)" measured=0.415
compound=O=C1O[C@@H](c2ccccc2)[C@@H](c2ccccc2)N2[C@@H](c3ccccc3OCCO)[C@]3(C(=O)Nc4ccccc43)[C@@H](C(=O)Nc3nc4ccccc4s3)[C@H]12 test_target="Torsin-1A-interacting protein 1 (Homo sapiens)" measured=0.618

Task: Any idea what its composite z-score is? The compound is COC(=O)C(CC#Cc1ccc2c(c1)[C@]1(C(=O)N2)[C@H](C(=O)Nc2nc3ccccc3s2)[C@H]2C(=O)O[C@H](c3ccccc3)[C@H](c3ccccc3)N2[C@@H]1c1ccccc1OCCO)C(=O)OC
Output: 1.01

----------
- Test target: Follistatin (Homo sapiens)
- Assay details: follistatin binders on small-molecule microarrays, primary screen, biochemical, small-molecule microarray, 635/667 nm fluorescence (AID 1132)
- Measurement context: FST binding, 635 nm fluorescence, higher = more signal
Readings of composite z-score for the listed compounds
Answer with the value's number alone.

Some solved cases for reference:
compound_string=C=C[C@H](CO[Si](CC)(CC)CC)N(Cc1ccc(OC(C)=O)c(OC)c1)S(=O)(=O)c1ccc(Br)cc1 measured=1.28
compound_string=CCS[C@H]1[C@@H](C(=O)O)[C@H](c2ccc(C)cc2)N(S(=O)(=O)c2ccc(C)cc2)[C@@H]1CC measured=0.714
compound_string=COCCOC(=O)N1C(=O)[C@@]2(c3cc(C#Cc4ccc(OC)cc4)ccc31)[C@H](c1ccc(O)cc1)N1[C@H](c3ccccc3)[C@H](c3ccccc3)OC(=O)[C@H]1[C@@H]2C(=O)N1CCc2cc(OC)c(OC)cc2C1 measured=1.02
compound_string=C=C(COC)/C(=C/C[C@@H](OC(=O)c1ccncc1)c1ccc(CO)o1)c1cc(C(=O)OC)ccc1OC measured=1.46
compound_string=CC(=O)NCCCC[C@@H]1NC(=O)[C@H]2C[C@@H](C(=O)NCCCCCCNC(=O)CS)[C@@H](c3ccc(O)cc3)N2C1=O measured=-0.409

Here is another compound to look at.
Task: Any idea what its composite z-score is? The compound is COC(=O)[C@@]1(Cc2ccc(F)cc2)[C@H]2c3cc(C(=O)N(C)C)n(Cc4ccccc4)c3C[C@H]2CN1C(=O)c1ccccc1
Output: 0.787

----------
- Test target: Homeobox protein Hox-A13 (Mus musculus)
- Assay details: inhibitors of HoxA13-DNA binding, primary screen, biochemical, fluorescence polarization, labeled oligonucleotide (AID 1185)
- Measurement context: 15 min, higher = more signal, called active from +8 up or from −8 down
Label rule, in plain words: z-score of -3 and up is Yes, under -3 is No.

As a guide, the following entries are already answered.
molecule=C=CCN1C(=O)[C@@]2(Cc3ccccc31)N=C(c1ccc(OCCCO)cc1)O[C@H]2c1ccccc1 test_target="Homeobox protein Hox-A13 (Mus musculus)" category_label=No
molecule=C=CCOC(=O)[C@@H]1[C@H]2C(=O)O[C@H](c3ccccc3)[C@H](c3ccccc3)N2[C@H](c2ccc(OCCOC(=O)[C@@H]3C[C@@H]4C(=O)NCC(=O)N4[C@@H]3c3ccc(O)cc3)cc2)[C@@]12C(=O)Nc1ccc(I)cc12 test_target="Homeobox protein Hox-A13 (Mus musculus)" category_label=Yes
molecule=CCOC(=O)C[C@H]1[C@H](OC(=O)c2ccc(C(=O)c3ccccc3)cc2)[C@@H](NC(=O)CC(C)C)c2cc(OCCCO)ccc2N1C(=O)c1ccc2ccccc2n1 test_target="Homeobox protein Hox-A13 (Mus musculus)" category_label=Yes
molecule=CCOC(=O)C[C@H]1[C@H](OC(=O)c2ccc(-c3ccccc3)cc2)[C@@H](NC(=O)Cc2ccc(OC)cc2)c2cc(OCCCO)ccc2N1C(=O)c1ccccc1 test_target="Homeobox protein Hox-A13 (Mus musculus)" category_label=Yes
molecule=COC(=O)[C@]1(CCC(=O)OC(C)(C)C)N=C(c2ccc(OCCCO)cc2)O[C@@H]1c1ccccc1CN=[N+]=[N-] test_target="Homeobox protein Hox-A13 (Mus musculus)" category_label=Yes
molecule=CCCCCCc1nc(-c2cc(C)c(OC)c(C)c2)cc2c1[Si](C(C)C)(C(C)C)OC2 test_target="Homeobox protein Hox-A13 (Mus musculus)" category_label=Yes

Task: Is z-score for O=C1C[C@@](C(=O)NCC(F)(F)F)(c2ccc([N+](=O)[O-])cc2)[C@@H](c2ccc(CO)cc2I)N1C1CCCCC1 at or above -3?
Output: No

Task: Is z-score for CCCC[C@H]1OB(O)C[C@H]2C1=C(COC)Cn1c(=O)n(-c3ccccc3)c(=O)n12 at or above -3?
Output: Yes

Task: Is z-score for N#Cc1ccc(NN2C(C(O)C(c3ccccc3)c3ccccc3)C=CC3C(=O)N(c4ccccc4)C(=O)C32)cc1 (stereo not drawn) at or above -3?
Output: Yes

Task: Is z-score for CCC(CC)C(O)C1C=CC2C(=O)NC(=O)C2N1Nc1ccccn1 (stereo not drawn) at or above -3?
Output: Yes

----------
Readings of composite z-score for the listed molecules
- Assay details: small-molecule microarray binders of probe aWnt5a, primary screen, biochemical, biotinylated probe, 635/667 nm fluorescence (AID 1113);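 note: score merges 667 nm fluorescence intensity with signal-to-noise per printed feature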
- Measurement context: higher = more signal
Answer with the value's number alone.

molecule=CCOC(=O)C[C@H]1[C@H](OC(=O)c2ccc(C(=O)c3ccccc3)cc2)[C@@H](NC(=O)c2ccccc2)c2cc(OCCCO)ccc2N1C(=O)c1ccc2ccccc2n1 reported_property="composite z-score" measured=-0.0614
molecule=O=C1C[C@@](C(=O)NC2CC2)(c2ccc([N+](=O)[O-])cc2)[C@@H](c2ccc(CO)cc2I)N1C1CCCCC1 reported_property="composite z-score" measured=-0.101
molecule=C=CCN1C(=O)[C@]2(O[C@H](CCn3cc([C@H](O)c4ccccc4)nn3)[C@@H]([Si](C)(C)c3ccc(OC)cc3)[C@@H]2C)c2cc(N3CCC3=O)ccc21 reported_property="composite z-score" measured=-0.0685
molecule="CN1C(=O)C2C=CC(C(O)c3ccco3)N(Nc3ccccc3)C2C1=O (stereo unspecified)" reported_property="composite z-score" measured=-0.0192
molecule=COc1ccc([Si](C)(C)[C@@H]2[C@@H](CC(=O)N3CCC[C@H]3CO)O[C@]3(C(=O)N(c4ccccc4)c4ccccc43)[C@H]2C)cc1 reported_property="composite z-score" measured=-0.124

Task: Any idea what its composite z-score is? The molecule is C=C[C@H](CO)NS(=O)(=O)c1ccc(Br)cc1
Output: -0.096

Task: Any idea what its composite z-score is? The molecule is CC(C)C[C@@H]1NC(=O)[C@H](C(C)C)NC(=O)[C@@]23C(=O)N[C@@H](Cc4ccccc4)C2[C@H](C)[C@@]2(C)O[C@H]2C3/C=C/CC/C=C/CNC1=O (stereo partly specified)
Output: -0.117

Task: Any idea what its composite z-score is? The molecule is O=C1O[C@@H](c2ccccc2)[C@@H](c2ccccc2)N2[C@@H](c3ccccc3OCCO)[C@]3(C(=O)Nc4ccccc43)[C@@H](C(=O)Nc3nc4ccccc4s3)[C@H]12
Output: -0.0621

Task: Any idea what its composite z-score is? The molecule is O=C1N(Cc2ccccc2)c2ccccc2[C@@H]2OC(c3ccc(OCCCO)cc3)=N[C@]12CCS(=O)(=O)c1ccccc1
Output: 0.0279

Task: Any idea what its composite z-score is? The molecule is C=C[C@H](C)[C@@H](OC(=O)Nc1ccc(OC)cc1)c1ccc(O)c2ccccc12
Output: -0.178

Task: Any idea what its composite z-score is? The molecule is CC(C)NC(=O)[C@@H]1c2ccccc2C(=O)N(C2Cc3ccccc3C2)[C@H]1c1ccc(CO)cc1
Output: 0.0142

Task: Any idea what its composite z-score is? The molecule is O=C(NC1CC1)[C@@H]1c2ccccc2C(=O)N(Cc2ccccc2Cl)[C@H]1c1ccc(CO)cc1
Output: -0.0765

Task: Any idea what its composite z-score is? The molecule is O=C(CS)NCCCCCCNC(=O)[C@@H]1C[C@@H]2C(=O)N[C@@H](Cc3ccccc3)C(=O)N2[C@@H]1c1cccc(OCCO)c1
Output: 0.0102

Task: Any idea what its composite z-score is? The molecule is CN(C)CCCCCCNC(=O)[C@H]1C[C@H]2C(=O)N[C@@H](CCCCN)C(=O)N2[C@H]1c1cccc(OCCO)c1
Output: 1.06

Task: Any idea what its composite z-score is? The molecule is CC1(C)C2C=C(C(O)C3C=CC4C(=O)NC(=O)C4N3Nc3ccc(Cl)cc3Cl)C[C@@H]1C2 (stereo partly specified)
Output: -0.006

Task: Any idea what its composite z-score is? The molecule is Cc1ccc([C@@H]2C[C@@H](Sc3ccccc3)[C@H](C(=O)O)CN2S(=O)(=O)c2ccc(C)cc2)cc1
Output: 0.0219
